assay: Pharmacokinetics analysis, plasma (LC-MS/MS); assay type: in vivo, mouse; settings: male, C57BL/6J, mouse, plasma, intraperitoneal, 5 mg/kg, 5 mg/kg (IP), 8 h, individual animals; read-out: Plasma Conc.
OBSERVATION TYPE: concentration at 8 h (ng/mL)

[
  {
    "COMPOUND": "O=C(O)c1ccc(N2C(=O)C(=Cc3ccccc3)SC2=S)cc1 (stereo in doubt)",
    "U": "ng/mL",
    "NUMERIC RESULT": 0.248
  }
]

----------
experiment: Pharmacokinetics analysis, TA muscle (LC-MS/MS); type: in vivo, mouse; conditions: male, C57BL/6J, mouse, tibialis anterior (TA) muscle, intraperitoneal, 5 mg/kg, 5 mg/kg (IP), 0.5 h, TA muscle, n = 3; read-out: Muscle Conc., Mean
OBSERVATION TYPE: concentration at 0.5 h (ng/g)

[
  {
    "MOLECULE": "O=C(O)c1ccc(N2C(=O)C(=Cc3ccccc3)SC2=S)cc1 (stereo in doubt)",
    "OBSERVATION TYPE": "concentration at 0.5 h",
    "NUMERIC RESULT": 323
  }
]

----------
Experiment: Pharmacokinetics analysis, plasma (LC-MS/MS)
Assay type: in vivo, mouse
Conditions: male, C57BL/6J, mouse, plasma, intraperitoneal, 5 mg/kg, 5 mg/kg (IP), 1.5 h, individual animals; read-out: Plasma Conc.
Description: Assessment of BML-260 pharmacokinetics (PK) was carried out by the company Chaon, Yongin-si, Republic of Korea. BML-260 was administered intraperitoneally at a dose of 5 mg/kg in an injection volume of 10 mL/kg. […] BML-260 levels in plasma and tissue samples were analyzed with liquid chromatography-tandem mass spectrometry (LC-MS/MS) using an Agilent 1200 HPLC system coupled with an AB Sciex 4000 QTrap MS/MS (Agilent Technologies, CA, USA). […]

[
  {
    "COMPOUND": "O=C(O)c1ccc(N2C(=O)C(=Cc3ccccc3)SC2=S)cc1 (stereo in doubt) [BML-260]",
    "concentration at 1.5 h (ng/mL)": 6.66
  }
]

----------
assay: Pharmacokinetics analysis, plasma (LC-MS/MS); assay type: in vivo, mouse; details: male, C57BL/6J, mouse, plasma, intraperitoneal, 5 mg/kg, 5 mg/kg (IP), 0.25 h, n = 3; read-out: Plasma Conc., Mean

[
  {
    "COMPOUND": "O=C(O)c1ccc(N2C(=O)C(=Cc3ccccc3)SC2=S)cc1 (stereo in doubt)",
    "concentration at 0.25 h (ng/mL)": 16.1
  }
]

----------
experiment: Pharmacokinetics analysis, TA muscle (LC-MS/MS); type: in vivo, mouse; conditions: male, C57BL/6J, mouse, tibialis anterior (TA) muscle, intraperitoneal, 5 mg/kg, 5 mg/kg (IP), 2 h, TA muscle, dilution factor 4, individual animals; read-out: Muscle Conc.

[
  {
    "COMPOUND": "O=C(O)c1ccc(N2C(=O)C(=Cc3ccccc3)SC2=S)cc1 (stereo in doubt) [BML-260]",
    "U": "ng/g",
    "concentration at 2 h": 166
  }
]

----------
assay: Pharmacokinetics analysis, TA muscle (LC-MS/MS); type: in vivo, mouse; conditions: male, C57BL/6J, mouse, tibialis anterior (TA) muscle, intraperitoneal, 5 mg/kg, 5 mg/kg (IP), 1.5 h, TA muscle, dilution factor 4, individual animals; read-out: Muscle Conc.

[
  {
    "COMPOUND": "O=C(O)c1ccc(N2C(=O)C(=Cc3ccccc3)SC2=S)cc1 (stereo in doubt)",
    "concentration at 1.5 h, ng/g": 231
  }
]
